- STUDY_TARGET: M4 muscarinic receptor (Homo sapiens)
- Construct: expressed in transfected cells; host or cells: CHO (M4-CHO)
- Sequence (P08173 whole entry): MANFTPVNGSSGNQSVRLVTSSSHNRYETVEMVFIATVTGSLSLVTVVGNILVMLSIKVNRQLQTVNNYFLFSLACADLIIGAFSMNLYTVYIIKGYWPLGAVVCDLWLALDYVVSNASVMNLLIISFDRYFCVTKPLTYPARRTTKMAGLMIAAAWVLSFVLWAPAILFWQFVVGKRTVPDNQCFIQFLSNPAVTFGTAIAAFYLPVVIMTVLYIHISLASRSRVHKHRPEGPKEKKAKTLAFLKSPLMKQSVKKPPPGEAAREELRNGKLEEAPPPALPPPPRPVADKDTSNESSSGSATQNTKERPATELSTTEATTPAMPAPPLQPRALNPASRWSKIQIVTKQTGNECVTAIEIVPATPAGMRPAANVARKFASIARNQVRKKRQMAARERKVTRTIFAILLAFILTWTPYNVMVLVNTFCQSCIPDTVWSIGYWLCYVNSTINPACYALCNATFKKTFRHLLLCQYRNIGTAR
- PROTOCOL_SUMMARY: Functional mobilization of intracellular calcium (FLIPR) in CHO cells expressing M4
- Format: cell-based
- CONDITION_PARAMETERS: CHO; 100% efficacy = maximum response obtained with the Carbachol control

COMPOUND: CC(=O)N[C@H]1CC2(CCN(CC(N)=O)CC2)c2ccccc21
Emax: < 25%
--
COMPOUND: C=CCCCN1CCC2(CC1)C[C@H](NC(=O)N1CCCC1)c1ccccc12
Emax: < 25%
--
COMPOUND: CC(C)(C)CCN1CCC2(CC[C@@H](NC(=O)[C@H]3CCC(=O)N3)c3ccc(F)cc32)CC1
Emax: 25 to 100%
--
COMPOUND: CN(C)C(=O)N[C@H]1CC2(CCN(C(=O)OC(C)(C)C)CC2)c2ccccc21
Emax: < 25%
--
COMPOUND: Cc1ccc2c(c1)C(=O)CC21CCN(CCC(C)(C)C)CC1
Emax: 25 to 100%
--
COMPOUND: CC(=O)N1CCCCC1C(=O)N[C@@H]1CCC2(CCN(CCC(C)(C)C)CC2)c2ccccc21 (stereo partly drawn)
Emax: 25 to 100%
--
COMPOUND: CCN(CC)C(=O)CN1CCC2(CC1)C[C@H](NC(C)=O)c1ccccc12
Emax: < 25%
--
COMPOUND: CCNC(=O)CN1CCC2(CC1)C[C@H](NC(C)=O)c1ccccc12
Emax: < 25%
--
COMPOUND: CCC(=O)N[C@H]1CC2(CCN(C(=O)OC(C)(C)C)CC2)c2ccccc21
Emax: < 25%

The origin of these recorded values is patent US8003660B2.
